- system: recombinant human HDACs (Homo sapiens)
- experimental-protocol: HDAC enzymatic assay
- Format: biochemical
- test-conditions: 5 nM HDAC enzyme, 5 h pre-incubation, 17 h reaction at 25° C.; isoform not given; read-out: IC50
pIC50: −log10 of the molar value.
Below, each of the compounds is paired with its reported pIC50 value.

// worked examples, pIC50 included
# compound, pIC50
rows = [
    ("Nc1ccc(-c2ccc(OC(F)F)cc2)nc1NC(=O)N1Cc2nccnc2C1 [Compound 228]", "5.30 to 6.30"),
    ("CN1CC2CN(C(=O)Nc3nc(-n4cccn4)ccc3N)CC2C1 (centres unmarked) [Compound 184]", "< 5.30"),
    ("CN1CCC(C(=O)Nc2nn(-c3ccccc3)cc2N)CC1 [Compound 354]", "< 5.30"),
]

Lab book: pIC50 of Nc1ccc(-c2ccc(F)cc2)nc1NC(=O)N1Cc2ccc(CN3CCCC3)cc2C1 [Compound 405] noted as 6.30 to 7.00

Entry CN1CCC(c2cnc3c(c2)CN(C(=O)Nc2nc(-c4ccc(F)cc4)ccc2N)C3)CC1 [Compound 252] — recorded pIC50 = 6.30 to 7.00

Item: COCc1ccc2c(c1)CN(C(=O)Nc1nc(-c3cccnc3)ccc1N)C2 [Compound 393] | pIC50: 5.30 to 6.30

What the record says about CN1CCN(C2CC3CN(C(=O)Nc4nc(-c5ccc(F)cc5)ccc4N)CC3C2)CC1 (centres unmarked) [Compound 179] : pIC50 is 5.30 to 6.30

// sample CN(C)Cc1cnc2c(c1)CN(C(=O)Nc1nc(-c3ccc(F)cc3)ccc1N)C2 [Compound 154] , its pIC50 was 6.30 to 7.00
